system.under.test: D(3) dopamine receptor (Homo sapiens, UniProt P35462)
Sequence (P35462 whole entry): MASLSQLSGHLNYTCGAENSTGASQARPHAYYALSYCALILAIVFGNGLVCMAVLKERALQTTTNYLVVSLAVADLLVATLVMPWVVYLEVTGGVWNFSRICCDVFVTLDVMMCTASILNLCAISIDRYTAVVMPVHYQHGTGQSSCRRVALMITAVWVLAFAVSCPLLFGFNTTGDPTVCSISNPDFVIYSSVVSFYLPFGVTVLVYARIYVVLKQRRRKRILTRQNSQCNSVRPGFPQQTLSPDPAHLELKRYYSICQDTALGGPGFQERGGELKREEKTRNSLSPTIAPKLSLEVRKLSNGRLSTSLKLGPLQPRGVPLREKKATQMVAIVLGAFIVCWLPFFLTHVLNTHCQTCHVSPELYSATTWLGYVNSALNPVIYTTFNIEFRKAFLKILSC
measured.attribute: Ki (nM)

A. O=C(/C=C/c1ccc2nc(O)ccc2c1)NCCCCN1CCc2ccc(OS(=O)(=O)C(F)(F)F)cc2C1
B. O=C(/C=C/c1ccc2ccccc2c1)NCCCCN1CCc2ccc(OS(=O)(=O)C(F)(F)F)cc2C1
input: Identify the item whose Ki is the smaller number: A or B I would appreciate it if you answered with the label of your choice.
output: A

A. O=C(NCCCCN1CCc2ccccc2C1)c1ccc(-c2ccccc2)cc1
B. CNC(=O)c1ccc(-c2ccc(C(=O)NCCCCN3CCc4ccc(OS(=O)(=O)C(F)(F)F)cc4C3)cc2)cc1
C. O=C(/C=C/c1ccccc1)NCCCCN1CCc2ccc(OS(=O)(=O)C(F)(F)F)cc2C1
D. O=C(NCCCCN1CCc2ccc(OS(=O)(=O)C(F)(F)F)cc2C1)c1ccc(-c2ccccc2)cc1
input: # sort list by recorded Ki, greatest to least Sort and list the labels as requested.
output: A, D, C, B
(A: 25.1 nM, D: 7.94 nM, C: 5.01 nM, B: 2.51 nM)

----------
assay.text: Pharmacokinetic property (blood clearance) in rat
Assay type: ADME, organism-based
measured.attribute: clearance (mL/min/kg)
Numbers only; they are read as mL/min/kg.

input: Suppose we examine the compound O=C(/C=C/c1c[nH]c2ccccc12)NCCCCN1CCc2ccc(OS(=O)(=O)C(F)(F)F)cc2C1 ; what clearance value has been reported?
output: 27

----------
system.under.test: UniProt:P14416
assay.text: Displacement [125I]iodosulpiride from human Dopamine receptor D2 expressed in CHO cells
measured.attribute: Ki (nM)

P. CC(=O)c1ccc(/C=C/C(=O)NCCCCN2CCc3ccc(OS(=O)(=O)C(F)(F)F)cc3C2)cc1
Q. O=C(NCCCCN1CCc2ccc(OS(=O)(=O)C(F)(F)F)cc2C1)c1cccc(-c2ccccc2)c1
R. CNC(=O)c1ccc(-c2ccc(C(=O)NCCCCN3CCc4ccc(OS(=O)(=O)C(F)(F)F)cc4C3)cc2)cc1
input: Kindly order the items shown according to Ki, from the highest value down. Rank them, then answer with their labels in that order.
output: Q, P, R

----------
system.under.test: D(2) dopamine receptor (Homo sapiens)
Sequence (P14416 whole entry): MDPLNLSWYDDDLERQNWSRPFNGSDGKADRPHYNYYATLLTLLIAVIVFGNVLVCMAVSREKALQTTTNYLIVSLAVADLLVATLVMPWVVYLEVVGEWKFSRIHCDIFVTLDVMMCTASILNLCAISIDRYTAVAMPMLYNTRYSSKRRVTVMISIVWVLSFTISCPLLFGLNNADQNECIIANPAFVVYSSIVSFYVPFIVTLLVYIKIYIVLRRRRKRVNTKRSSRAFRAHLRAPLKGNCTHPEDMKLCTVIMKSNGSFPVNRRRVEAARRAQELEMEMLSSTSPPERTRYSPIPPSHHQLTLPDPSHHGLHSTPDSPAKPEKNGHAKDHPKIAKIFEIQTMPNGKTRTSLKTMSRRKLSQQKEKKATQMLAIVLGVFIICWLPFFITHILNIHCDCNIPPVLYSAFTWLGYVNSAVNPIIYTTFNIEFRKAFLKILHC
assay.text: Displacement [125I]iodosulpiride from human Dopamine receptor D2 expressed in CHO cells
measured.attribute: Ki (nM)

A selection of reference data follows.
>>> numeric_value("O=C(NCCCCN1CCc2ccc(OS(=O)(=O)C(F)(F)F)cc2C1)c1ccc(-c2ccc(N3CCCC3=O)cc2)cc1")
126
>>> numeric_value("Cc1cc(C(=O)NCCCCN2CCc3ccc(OS(=O)(=O)C(F)(F)F)cc3C2)ccc1-c1ccccc1")
1000

I. CC(=O)c1ccc(-c2ccc(C(=O)NCCCCN3CCc4ccc(OS(=O)(=O)C(F)(F)F)cc4C3)cc2)cc1
II. CNC(=O)c1cccc(-c2ccc(C(=O)NCCCCN3CCc4ccc(OS(=O)(=O)C(F)(F)F)cc4C3)cc2)c1
III. Cc1ccccc1-c1ccc(C(=O)NCCCCN2CCc3ccc(OS(=O)(=O)C(F)(F)F)cc3C2)cc1
IV. CN(C)c1ccc(/C=C/C(=O)NCCCCN2CCc3ccc(OS(=O)(=O)C(F)(F)F)cc3C2)cc1
V. O=C(/C=C/c1cnc2ccccc2c1)NCCCCN1CCc2ccc(OS(=O)(=O)C(F)(F)F)cc2C1
input: Please order the records by their reported Ki, lowest number first. Please express your ranking as an ordered list of the labels.
output: II, I, V, IV, III
(II: 126 nM, I: 200 nM, V: 316 nM, IV: 501 nM, III: 1580 nM)

P. O=C(/C=C/c1ccc2ncccc2c1)NCCCCN1CCc2ccc(OS(=O)(=O)C(F)(F)F)cc2C1
Q. O=C(/C=C/c1c[nH]c2ccccc12)NCCCCN1CCc2ccc(OS(=O)(=O)C(F)(F)F)cc2C1
R. O=C(/C=C/c1ccc2nc(O)ccc2c1)NCCCCN1CCc2ccc(OS(=O)(=O)C(F)(F)F)cc2C1
input: List the 3 entries from lowest Ki to highest Ki value. Return the labels ranked in the requested order, please.
output: R, P, Q
(R: 158 nM, P: 251 nM, Q: 631 nM)

----------
This document collects Ki values reported for UniProt:P35462.
measured.attribute: Ki (nM)

Some solved cases for reference:
>>> numeric_value("Cc1ccccc1-c1ccc(C(=O)NCCCCN2CCc3ccc(OS(=O)(=O)C(F)(F)F)cc3C2)cc1")
50.1
>>> numeric_value("O=C(/C=C/c1c[nH]c2ccccc12)NCCCCN1CCc2ccc(OS(=O)(=O)C(F)(F)F)cc2C1")
3.98

1. CC(=O)c1cccc(/C=C/C(=O)NCCCCN2CCc3ccc(OS(=O)(=O)C(F)(F)F)cc3C2)c1
2. O=C(NCCCCN1CCc2ccc(OS(=O)(=O)C(F)(F)F)cc2C1)c1ccc(-c2ccc(N3CCCC3=O)cc2)cc1
input: Of 1 and 2 , which one carries the higher reported Ki? Please identify the chosen entry by its label.
output: 1
